Observed GI50 for MDA-MB-231 breast, reported per entry below.
test readout: GI50

compound	result
CC1=C[C@H]2c3c(c(O)c(O)c4oc5ccccc5c(=O)c34)[C@H](c3cc(O)c(O)c4oc5ccccc5c(=O)c34)[C@H]2C(C)(C)C1	2.9 µM
COc1ccc(/C=C/c2nc(NCCCN(C)C)c3ccccc3n2)cc1	1.99 µM
OCC1OC(n2ccc3c(NO)ncnc32)C(O)C1O (stereo unspecified)	0.233 µM
Clc1ccc2[nH]cc(-c3nc(-c4c[nH]c5ncccc45)cs3)c2c1	2.2 µM
CCCCCCCCCCN(CCCCCCCCCC)CC(=O)c1ccc2cc(Br)c3ccccc3c2c1	1.67 µM
O=S(=O)(NCC1CCC(CNc2ccc(Cl)cc2)CC1)c1ccc(-c2ccccc2)cc1 (stereo unspecified)	15.7 µM
C#CC1(O)C(COP(=O)(O)OC2CC(n3cc(F)c(=O)[nH]c3=O)OC2CO)OC(n2ccc(N)nc2=O)C1O (stereo unspecified)	0.0731 µM
N#Cc1c(-c2ccccc2)cc(-c2ccc(Nc3nc(Nc4ccc(Cl)cc4)nc(Nc4ccc(Cl)cc4)n3)cc2)nc1N	1.76 µM
O=C(NCCCNc1cc(-c2cn(-c3ccccc3)nc2-c2cccc(O)c2)ccn1)c1ccccc1	2.34 µM
NNc1cccc(/C=C/c2ccccc2)cc1=O	4.73 µM
CCOC(=O)c1[nH]c(-c2ccc(Cl)cc2)cc1-c1cccnc1	1.67 µM
